Reported melting point values are given for each entry in this list.

[Q] Which melting point is listed for COC(c1cc(C)c(OCC(=O)O)c(C)c1)(C(F)(F)F)C(F)(F)F ?
[A] 105 to 108 °C

[Q] Given the entry O=c1cc(-c2ccc(O)c(F)c2)oc2ccccc12 , report its measured melting point.
[A] 275 to 276 °C

[Q] Which melting point is listed for CCCCc1oc2ccccc2c1C(=O)Nc1ccc2c(Br)c(OC(Cc3ccccc3)C(=O)OC)ccc2c1 (stereo not given) ?
[A] 136 to 139 °C

More entries:
[Q] Bench note: what melting point did NC(CC1c2ccccc2Oc2ccccc21)(C(=O)O)c1ccc(C(=O)O)c(O)c1 (stereo not given) show?
[A] 191 to 194 °C

[Q] // melting point lookup, key: O=C(NCCNc1c(Cl)cncc1Cl)C1CCN(c2c(Cl)cncc2Cl)CC1
[A] 157 to 159 °C

[Q] Fill blank: measured melting point of the molecule O=C(NNC(=O)C(F)(F)F)C(F)(F)F is ____.
[A] 173 to 175 °C

[Q] I would be grateful if you could share the reported melting point for N#Cc1c(C(F)(F)F)nn(-c2c(Cl)cc(C(F)(F)F)cc2Cl)c1C(F)(F)F .
[A] 88 to 92 °C

[Q] Quick one: melting point of CCN(CC1OCCO1)c1c([N+](=O)[O-])cc(S(C)(=O)=O)cc1[N+](=O)[O-] ?
[A] 125 to 127 °C

[Q] I have this molecule here, CCCCOc1ccc(CNC(=O)c2ccccc2[N+](=O)[O-])cc1 , and I need its recorded melting point.
[A] 101 to 102 °C

[Q] melting point for O=C1c2ccccc2C(=O)N1CCCN1CCC(c2noc3cc(F)ccc23)CC1 ?
[A] 128 to 130 °C

[Q] I am curious: what melting point value has been reported for CSC(C)(C(=O)O)c1cccc(C2(c3ccccc3)OCCO2)c1 (stereo not given) ?
[A] 118 to 120 °C

[Q] For the molecule shown here, O=C1CCCN1C(=O)Oc1ccccc1 , give the reported melting point.
[A] 120 to 122 °C

[Q] I am curious: what melting point value has been reported for Cc1ccc(N2CN(c3ccccc3)C3=NN=CC3=C2Cl)cc1 ?
[A] 177 to 179 °C

[Q] Form field: reported melting point of CNC(=C[N+](=O)[O-])NCCN1CCC(C(=O)c2ccc(F)cc2)CC1
[A] 157 to 159 °C

[Q] Return reported melting point; argument: Cc1nc(N)c2nc(C)n(Cc3cc(-c4ccc(F)cc4)no3)c2c1C
[A] 278 to 279 °C

----------
quantity-kind: melting point

[Q] I have this compound here, Cc1cc(Oc2c(Cl)cc(C(F)(F)F)cc2Cl)nn1C(=S)NCC1CCCO1 (stereo not given) , and I need its recorded melting point.
[A] 69 to 71 °C

[Q] Value lookup for melting point; key = COc1cccc(CNc2nccc(-c3cc(N4CCN(CCCN(C)C)CC4)c4cc(OC)ccc4c3)n2)c1
[A] 70 to 75 °C

[Q] Name the recorded melting point for CN(C)C1CCN(S(=O)(=O)c2ccc(Nc3ccnc4cc(Cl)ccc34)cc2)CC1 .
[A] 230 to 231 °C

[Q] // lookup melting point for COc1ccccc1N(CN1CCOC1=O)C(=O)CCl
[A] 109 to 110 °C

We now examine a further compound.
[Q] Reported melting point for CCOc1ccc(-c2ccc(Cl)nn2)c(OCC2CO2)c1 (stereo not given) : what is it?
[A] 93 to 94 °C
